Reported residual activity by item:
assayed system: MAP2K2 (human)
assay overview: radiometric filter-binding kinase assay, Kinase HotSpot
run parameters: compound 0.5 µM; ATP 10 µM

smi	assayed system	residual activity
CS(=O)(=O)CCNCc1ccc(-c2ccc3ncnc(Nc4ccc(OCc5cccc(F)c5)c(Cl)c4)c3c2)o1	MAP2K2 (human)	106%
Cc1cccc(-c2nc(C(C)(C)C)[nH]c2-c2ccc3c(c2)OCO3)n1	MAP2K2 (human)	108%
CN(C)S(=O)(=O)c1ccc2c(c1)/C(=C/c1cc3c([nH]1)CCCC3)C(=O)N2	MAP2K2 (human)	104%
O=C1C(Cl)=C(N2C(=O)CCC2=O)C(=O)c2ccccc21	MAP2K2 (human)	106%
COc1ccc(C(=O)Nc2sc3c(c2C(N)=O)CCCC3)cc1OC	MAP2K2 (human)	95.3%
NC(=O)c1cccc(-c2cc(Nc3ccc(OC(F)(F)F)cc3)ncn2)c1	MAP2K2 (human)	92.5%
COc1ccc(S(=O)(=O)N(CCO)c2ccccc2CN(C)C/C=C/c2ccc(Cl)cc2)cc1	MAP2K2 (human)	100%
O=C1Nc2ccc(Br)cc2/C1=C\c1cc2c([nH]1)CCCC2	MAP2K2 (human)	92.1%
C[C@@H]1CCN(C(=O)CC#N)C[C@@H]1N(C)c1ncnc2[nH]ccc12	MAP2K2 (human)	117%
CN(C)c1ccc(/C=C2\C(=O)Nc3ccccc32)cc1	MAP2K2 (human)	99.4%
COc1cc2ncnc(Nc3ccc(Oc4ccccc4)cc3)c2cc1OC	MAP2K2 (human)	105%
CCCCc1c(-c2ccc(OC)cc2)[nH]c2nccnc12	MAP2K2 (human)	79.4%
COc1ccc(Cl)cc1NC(=O)Nc1cc(C)nc2ccccc12	MAP2K2 (human)	94.1%
